- tested_system: RIPK1 (Homo sapiens (Human))
- Sequence (Q13546 whole entry, species assumed): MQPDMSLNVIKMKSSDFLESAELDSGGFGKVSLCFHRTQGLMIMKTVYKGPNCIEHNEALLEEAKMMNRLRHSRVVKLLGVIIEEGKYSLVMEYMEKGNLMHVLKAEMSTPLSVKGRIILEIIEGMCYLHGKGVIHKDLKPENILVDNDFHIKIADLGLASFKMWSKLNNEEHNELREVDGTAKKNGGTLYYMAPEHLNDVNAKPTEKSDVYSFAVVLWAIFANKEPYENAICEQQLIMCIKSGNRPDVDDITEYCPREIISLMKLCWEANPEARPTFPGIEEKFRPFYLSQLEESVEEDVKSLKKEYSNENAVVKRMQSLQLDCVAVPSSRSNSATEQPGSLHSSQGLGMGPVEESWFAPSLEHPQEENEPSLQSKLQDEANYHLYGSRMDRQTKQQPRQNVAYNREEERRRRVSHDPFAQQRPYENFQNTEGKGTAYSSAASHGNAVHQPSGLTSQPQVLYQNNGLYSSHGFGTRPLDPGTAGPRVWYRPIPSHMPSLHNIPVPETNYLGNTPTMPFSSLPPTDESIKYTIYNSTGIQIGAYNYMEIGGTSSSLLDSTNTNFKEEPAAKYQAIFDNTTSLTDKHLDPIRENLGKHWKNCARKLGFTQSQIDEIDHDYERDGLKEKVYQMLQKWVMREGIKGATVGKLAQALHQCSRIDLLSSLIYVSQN
- experiment_description: RIPK1 ADP-Glo biochemical kinase assay
- condition: read-out: RIPK1 ADP-Glo Kinase (IC50)
Reported IC50 values follow for various compounds
measure_name: IC50

1) CN1CC(F)(C#Cc2ccc3c(c2)N(C)C(=O)[C@@H](NC(=O)c2cc(Oc4ccccc4)ccn2)CO3)C1 :: 17.3 nM
2) CCN(C(=O)c1n[nH]c(Cc2ccccc2)n1)[C@H]1COc2ccc(C#CC(C)(C)O)cc2N(C)C1=O :: 616 nM
3) CN1C(=O)[C@@H](NC(=O)c2cc(Oc3ccccc3F)ccn2)COc2ccc(C#CC3(O)COC3)cc21 :: 15.1 nM
4) CN1C(=O)[C@@H](NC(=O)c2cc(-c3ccccc3)ccn2)COc2ccc(C#CC(C)(C)O)cc21 :: 40.3 nM
5) CN1C(=O)[C@@H](NC(=O)c2cc(Oc3ccccc3)ccn2)COc2ccc(C#CC3(O)CS(=O)(=O)C3)cc21 :: 106 nM
6) CC(C)CCc1ccc2c(c1)N(C)C(=O)[C@@H](NC(=O)c1n[nH]c(Cc3ccccc3)n1)CO2 :: 64.4 nM
7) CN1C(=O)[C@@H](NC(=O)c2cc(Oc3ccccc3)ccn2)COc2ccc(N3CCC4(CCOCC4)C3)cc21 :: 36.3 nM
